Hey, just so you know, these numbers are from patent US20230272055A1.

Molecular target: T1, human mutCALR on BaF3 cells stably expressing human MPL and human mutCALR (MPL-mutCALR cells) (human)
T1 construct: also called mutant calreticulin
T1 chain: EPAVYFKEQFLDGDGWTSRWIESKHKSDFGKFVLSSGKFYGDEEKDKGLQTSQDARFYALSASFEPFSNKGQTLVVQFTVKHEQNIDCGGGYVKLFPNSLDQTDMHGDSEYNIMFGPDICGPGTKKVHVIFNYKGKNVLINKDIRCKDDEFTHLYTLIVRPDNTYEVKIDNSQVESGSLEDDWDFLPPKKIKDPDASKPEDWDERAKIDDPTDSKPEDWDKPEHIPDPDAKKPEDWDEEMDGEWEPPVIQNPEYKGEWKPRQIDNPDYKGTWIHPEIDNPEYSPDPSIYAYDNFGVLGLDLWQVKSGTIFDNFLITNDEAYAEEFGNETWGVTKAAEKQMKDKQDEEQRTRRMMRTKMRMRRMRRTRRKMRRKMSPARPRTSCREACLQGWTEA
Assay: flow cytometry, BaF3 MPL-mutCALR cells
Measured log10(EC50) by item
The figures below represent log10 of EC50, where EC50 is stated in µg/mL.

Take a look at these entries with their results.
1. anti-mutCALR antibody clone 135 (antibody, human IgG1, lambda, N297A, V domains shown) VH: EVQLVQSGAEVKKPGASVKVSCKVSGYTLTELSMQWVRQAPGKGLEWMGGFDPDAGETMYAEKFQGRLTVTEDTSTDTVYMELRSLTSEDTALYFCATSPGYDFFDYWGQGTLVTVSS VL: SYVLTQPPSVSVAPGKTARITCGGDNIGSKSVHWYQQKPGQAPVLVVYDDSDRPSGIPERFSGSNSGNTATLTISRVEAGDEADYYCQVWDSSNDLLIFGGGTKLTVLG	-2.49
2. anti-mutCALR antibody clone 49 (antibody, human IgG1, lambda, V domains shown, human IgG1) VH: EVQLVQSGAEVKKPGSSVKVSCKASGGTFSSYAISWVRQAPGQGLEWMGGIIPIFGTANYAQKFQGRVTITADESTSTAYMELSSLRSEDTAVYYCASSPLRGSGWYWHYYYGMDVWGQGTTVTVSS VL: SYELTQPPSVSVAPGKTARITCGGNNIRAKHVHWYQQKPGQSPVLVIYQDSKRPSGIPERFSGSNSGSTATLTISRVEAGDEADYYCQVWDSSTVVFGGGTKLTVLG	-0.05
3. anti-mutCALR antibody clone 5 (antibody, human IgG1, lambda, V domains shown, human IgG1) VH: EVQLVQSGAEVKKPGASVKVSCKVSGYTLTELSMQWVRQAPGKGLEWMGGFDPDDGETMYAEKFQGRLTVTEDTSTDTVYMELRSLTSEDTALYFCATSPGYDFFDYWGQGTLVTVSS VL: SYVLTQPPSVSVAPGQTASITCVGTNFGSKNVHWYQQRPGQAPVLVVYDDSDRPSGIPERFSGSNSGNTATLTISRVEAGDEADYYCQVWDSSSDHLIFGGGTKLTVLG	-1.05
4. anti-mutCALR antibody clone 31 (antibody, human IgG1, lambda, V domains shown, human IgG1) VH: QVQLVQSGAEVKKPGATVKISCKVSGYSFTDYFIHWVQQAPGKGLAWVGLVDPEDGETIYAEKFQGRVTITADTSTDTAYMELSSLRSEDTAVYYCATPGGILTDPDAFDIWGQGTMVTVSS VL: QSALTQPASVSGSPGQSVTISCTGTSSDVGGYNYVSWYQHHPGKAPKLMIYDVNKRPSGVPDRFSGSKSGNTASLTISGLQAEDEADYYCSSYIPSSTRWVFGGGTKLTVLG	-2.00

For the next question, use this binder.
log10(EC50) for anti-mutCALR antibody clone 16 (antibody, human IgG1, lambda, V domains shown, human IgG1) VH: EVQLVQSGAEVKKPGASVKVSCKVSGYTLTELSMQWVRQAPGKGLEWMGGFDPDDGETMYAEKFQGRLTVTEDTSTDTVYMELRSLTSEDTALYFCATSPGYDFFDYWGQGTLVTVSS VL: SYVLTQPPSVSVAPGKTARITCGGNNTGSKSVHWYQQKPGQAPVLVVYDDSDRPSGIPERFSGSNSGNTATLTINRVEAGDEADYYCQVWDSSNDLLIFGGGTKLTVLG is -1.40
